Cited source: patent US20180318438A1

test system: NCI-H292: human mucoepidermoid lung carcinoma cells; assay: Cytotoxicity, MTT assay; type: cell-based; conditions: NCI-H292, 96 h, metabolites
endpoint: IC50
In your response, put the unit directly after the numeric value.

**Query** So what's the measured IC50 for this one? CC(C)(C)[C@H](c1cc(-c2cc(F)ccc2F)cn1Cc1ccccc1)N(CC[C@H](N)C(=O)NCCNC(=O)CNC(=O)CC(SC[C@H](N)C(=O)O)C(=O)O)C(=O)CO (stereo partly shown)
**Result** 152 nM
